Assay: Cytotoxicity against human HepG2 cells
Assay type: cell-based
Measurement type: CC50

Query: Name the reported CC50 value associated with the compound O=C1N2C[C@@H](CC[C@H]2F)N1OS(=O)(=O)[O-].[Na+]
Result: > 100 µM

###

Assay: Stability in mouse plasma assessed as parent compound remaining after 1 hr
Assay type: ADME, cell-free
Conditions: read-out: Stabilty
Measurement type: remaining at 1 h (%)
Give just the numeric value; % need not be written.

Query: // returns reported remaining at 1 h for input O=C1N2C[C@@H](CC[C@H]2F)N1OS(=O)(=O)[O-].[Na+]
Result: 90

###

Molecular target: Cytochrome P450 2D6 (Homo sapiens)
Sequence (P10635 whole entry): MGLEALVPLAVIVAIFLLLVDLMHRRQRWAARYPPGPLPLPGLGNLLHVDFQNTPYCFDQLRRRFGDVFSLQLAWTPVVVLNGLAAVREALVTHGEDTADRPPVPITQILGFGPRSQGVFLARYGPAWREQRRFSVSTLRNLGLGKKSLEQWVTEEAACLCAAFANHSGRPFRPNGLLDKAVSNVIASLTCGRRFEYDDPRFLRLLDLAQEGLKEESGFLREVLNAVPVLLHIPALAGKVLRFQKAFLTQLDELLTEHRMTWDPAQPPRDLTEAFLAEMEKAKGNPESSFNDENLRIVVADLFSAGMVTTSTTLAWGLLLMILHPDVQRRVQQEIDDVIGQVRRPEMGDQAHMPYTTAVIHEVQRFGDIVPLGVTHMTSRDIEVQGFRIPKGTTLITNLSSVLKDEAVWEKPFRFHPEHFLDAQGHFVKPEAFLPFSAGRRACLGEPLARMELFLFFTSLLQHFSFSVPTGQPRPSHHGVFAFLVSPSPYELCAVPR
Measurement type: IC50

Query: Quick check: IC50 on Cytochrome P450 2D6 (Homo sapiens), item O=C1N2C[C@@H](CC[C@H]2F)N1OS(=O)(=O)[O-].[Na+] ?
Result: > 50 µM
